System: EKVX
Test: NCI tumour cell line growth inhibition, 48 h
Active and inactive are the calls of the source. No stated cut-off is given here; in the data, active = GI50 up to about 1.1 µM and inactive = higher.
Respond using exactly one of the listed classes: active, inactive

Before answering, review these 5 worked examples.
molecule	targetDesc	className
COc1cc(OC)c(C2(c3c(OC(C)C)c(=O)c3=O)SCCCS2)cc1OC	EKVX	inactive
N#Cc1nc(-c2cccnc2)oc1N	EKVX	inactive
CC[C@H]1C=CCC[C@@]2(C[C@@H]3CC[C@H]4[C@@H](C(=O)OCCCCCCCCCCCCCCCC(=O)N(CCCNC(C)=O)C[C@H](CCNC(C)=O)OC(C)=O)[C@@]5(CCC[C@@H](C)O5)NC(=[N+]34)N2)O1	EKVX	active
CCOP(=O)(OCC)/C(C#N)=C/c1cn(C)cn1	EKVX	inactive
Cc1ccc(C2CC(=O)CC(c3ccc(C)cc3)C23C(=O)NC(=O)NC3=O)cc1 (stereo unspecified)	EKVX	inactive

Called result for CC(=O)N1C(C(=O)NC2CCCCC2)CSC1c1ccccc1 (stereo unspecified)
inactive

Check O=C1CC(NCCCNC2CC(=O)c3c(Br)sc(Br)c32)c2c(Br)sc(Br)c21 (stereo unspecified) too.
inactive

Check Clc1cccc2c1OCC1C(c3ccccc3)=NN(c3ccccc3)C21 (stereo unspecified) too.
inactive

Check Oc1ccccc1/C=C/c1csnn1 too.
inactive
